system: Escherichia coli; test: minimum inhibitory concentration (MIC); conditions: isolate (source animal id): 160

compound | minimum inhibitory concentration
C=C[C@]1(C)C[C@@H](OC(=O)CSCCN(CC)CC)[C@]2(C)[C@H](C)CC[C@]3(CCC(=O)[C@H]32)[C@@H](C)[C@@H]1O [Tiamulin] | > 32 µg/mL
CCCN1C[C@H](C)[C@@H](O)[C@](C)(O)[C@@H](CC)OC(=O)[C@H](C)[C@@H](O[C@H]2C[C@@](C)(OC)[C@@H](O)[C@H](C)O2)[C@H](C)[C@@H](O[C@@H]2O[C@H](C)C[C@H](N(C)C)[C@H]2O)[C@](C)(O)C[C@H]1C [Gamithromycin] | > 8 µg/mL
CC[C@H]1OC(=O)C[C@@H](O)[C@H](C)[C@@H](O[C@@H]2O[C@H](C)[C@@H](O[C@H]3C[C@@](C)(O)[C@@H](O)[C@H](C)O3)[C@H](N(C)C)[C@H]2O)[C@@H](CC=O)C[C@@H](C)C(=O)/C=C/C(C)=C/[C@@H]1CO[C@@H]1O[C@H](C)[C@@H](O)[C@@H](OC)[C@H]1OC [Tylosin] | > 32 µg/mL
CC1(C)S[C@@H]2[C@H](NC(=O)Cc3ccccc3)C(=O)N2[C@H]1C(=O)O [Penicillin] | > 8 µg/mL
